The values you see were collected from patent US20100093776A1.

- System tested: CDK9/cyclinT1 (Homo sapiens)
- Sequence (P50750 whole entry): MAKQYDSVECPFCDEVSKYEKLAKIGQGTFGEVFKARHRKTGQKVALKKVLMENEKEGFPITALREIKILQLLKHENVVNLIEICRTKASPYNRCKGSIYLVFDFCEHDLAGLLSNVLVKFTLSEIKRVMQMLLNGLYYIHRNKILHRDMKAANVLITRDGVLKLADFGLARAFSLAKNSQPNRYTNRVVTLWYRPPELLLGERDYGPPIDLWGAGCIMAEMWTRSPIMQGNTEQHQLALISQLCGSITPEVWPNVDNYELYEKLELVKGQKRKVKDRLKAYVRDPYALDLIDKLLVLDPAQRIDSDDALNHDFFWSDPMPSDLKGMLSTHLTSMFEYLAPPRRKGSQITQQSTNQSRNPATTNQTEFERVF
- Sequence (O60563 whole entry partner): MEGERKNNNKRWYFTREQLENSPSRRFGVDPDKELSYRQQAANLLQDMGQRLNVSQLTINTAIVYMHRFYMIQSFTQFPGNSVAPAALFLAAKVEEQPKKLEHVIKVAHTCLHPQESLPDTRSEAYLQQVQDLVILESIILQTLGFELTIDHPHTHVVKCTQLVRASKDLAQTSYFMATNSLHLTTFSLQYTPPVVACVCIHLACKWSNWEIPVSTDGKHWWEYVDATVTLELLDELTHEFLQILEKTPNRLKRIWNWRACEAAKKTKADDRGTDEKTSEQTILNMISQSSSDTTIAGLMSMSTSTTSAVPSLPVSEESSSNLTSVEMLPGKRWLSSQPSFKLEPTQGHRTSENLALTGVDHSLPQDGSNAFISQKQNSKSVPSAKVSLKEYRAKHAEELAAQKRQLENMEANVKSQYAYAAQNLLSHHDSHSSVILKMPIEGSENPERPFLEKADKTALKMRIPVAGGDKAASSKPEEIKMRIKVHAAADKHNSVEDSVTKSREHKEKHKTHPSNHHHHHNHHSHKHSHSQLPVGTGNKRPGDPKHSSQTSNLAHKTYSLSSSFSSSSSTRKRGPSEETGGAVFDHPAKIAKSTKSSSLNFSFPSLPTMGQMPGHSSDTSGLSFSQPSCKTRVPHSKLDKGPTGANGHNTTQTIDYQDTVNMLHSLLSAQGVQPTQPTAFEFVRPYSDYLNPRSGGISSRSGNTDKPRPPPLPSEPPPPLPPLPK
- Method: CDK9/cyclinT1 IMAP fluorescence polarization kinase assay
- Experimental parameters: 6 μM ATP, two hours at room temperature
Metric name: IC50

Compound	IC50
O=C(Cn1ccc2c(-c3ccnc(Nc4cccc(Cl)c4)n3)cccc21)NCCN1CCCC1	< 5 µM
Cc1ccc2[nH]ccc2c1-c1ccnc(Nc2cccc(S(C)(=O)=O)c2)n1	< 5 µM
Cn1ccc2c(-c3ccnc(Nc4cccc(Cl)c4)n3)cccc21	< 5 µM
NC1CCN(C(=O)Cn2ccc3c(-c4ccnc(Nc5cccc(Cl)c5)n4)cccc32)CC1	< 5 µM
O=C(Cn1ccc2c(-c3ccnc(Nc4cccc(Cl)c4)n3)cccc21)NCC1CCCN1 (stereo not drawn)	< 5 µM
Clc1cccc(Nc2nccc(-c3cccc4c3ccn4CCN3CCOCC3)n2)c1	< 5 µM

Task item: Write down IC50 measured for item NCCNC(=O)Cn1ccc2c(-c3ccnc(Nc4cccc(Cl)c4)n3)cccc21
Reply: < 5 µM

Task item: Write down IC50 measured for item Clc1cccc(Nc2nccc(-c3cccc4[nH]ccc34)n2)c1
Reply: < 5 µM
